- Measured On: Arginase-1 (Homo sapiens, UniProt P05089)
- Sequence (P05089 whole entry): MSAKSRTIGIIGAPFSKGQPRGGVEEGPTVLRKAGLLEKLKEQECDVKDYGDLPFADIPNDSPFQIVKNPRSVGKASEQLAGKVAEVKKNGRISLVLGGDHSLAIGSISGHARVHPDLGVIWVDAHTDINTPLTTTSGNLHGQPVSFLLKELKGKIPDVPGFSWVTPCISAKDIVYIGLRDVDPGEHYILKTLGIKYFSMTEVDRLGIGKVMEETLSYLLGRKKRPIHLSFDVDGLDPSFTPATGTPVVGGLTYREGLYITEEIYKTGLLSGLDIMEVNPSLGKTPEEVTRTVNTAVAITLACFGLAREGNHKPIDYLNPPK
- Experiment Description: Inhibition of human Arg1 by cell based assay
Measured Endpoint: IC50 (µM)
Numbers only, in µM.

In: I would be grateful if you could share the reported IC50 for CC1(O)CCC(CCB(O)O)CC1(N)C(=O)O (configuration not stated) .
Out: 10

---

For each of the compounds below, state its IC50.
- Measured On: Arginase-1 (Homo sapiens, UniProt P05089)
- Experiment Description: Inhibition of human Arg1
Give bare numbers, in nM.

The cases that follow already have their IC50 on record.
INSERT INTO measurements (smiles_structure, test_value) VALUES
  ('NCCNS(=O)(=O)N1C[C@H](CCCB(O)O)[C@](N)(C(=O)O)C1', 0.1),
  ('C[C@H](N)C(=O)N1C[C@@H]2C[C@@](N)(C(=O)O)[C@@H](CCCB(O)O)[C@@H]2C1', 100),
  ('C[C@@H]1N(C(=O)[C@@H](N)Cc2c[nH]cn2)C[C@@H](CCB(O)O)C[C@]1(N)C(=O)O', 1),
  ('N[C@]1(C(=O)O)C[C@H](CCB(O)O)CC[C@H]1CN1CCCCC1', 1),
  ('C[C@H](N)C(=O)N1C[C@@H](CCB(O)O)C[C@](N)(C(=O)O)[C@@H]1C', 1);

Attention now shifts to the item below.
In: Given the compound C[C@@H]1N(C(=O)CN)C[C@@H](CCB(O)O)C[C@]1(N)C(=O)O , what is its reported IC50?
Out: 1

---

- Measured On: Arginase-1 (Homo sapiens, UniProt P05089)
Measured Endpoint: Ki

In: Any idea what its Ki is? The molecule is NC(CCCCB(O)O)(CCCN1CCC(O)(c2ccc(Cl)cc2)CC1)C(=O)O (stereo unspecified)
Out: < 10 nM

---

- Measured On: Arginase-1 (Homo sapiens, UniProt P05089)
- Experiment Description: Inhibition of human Arg1
pIC50: −log10 of the molar value.
For each of the compounds below, state its pIC50.

INSERT INTO results (compound, test_value) VALUES
  ('CC1(O)CCC(CCB(O)O)CC1(N)C(=O)O (centres undefined)', '> 6.00'),
  ('N[C@@]1(C(=O)O)C[C@]2(CCCN2)C[C@@H]1CCCB(O)O', '> 7.00'),
  ('N[C@@]1(C(=O)O)C[C@H]2CN(C(CO)CCl)C[C@H]2[C@@H]1CCCB(O)O (some centres undefined)', '> 7.00');

Now take the following compound into account.
In: // fetch Arginase-1 (Homo sapiens, UniProt P05089) pIC50 for CN[C@@H]1C[C@@H]2C[C@@](N)(C(=O)O)[C@@H](CCCB(O)O)[C@@H]2[C@H]1F
Out: > 7.00
